Biological target: STARD5 (Homo sapiens, UniProt Q9NSY2)
Construct: STARD5(6-213); host or cells: E. coli BL21(DE3)
Sequence (Q9NSY2 6-213): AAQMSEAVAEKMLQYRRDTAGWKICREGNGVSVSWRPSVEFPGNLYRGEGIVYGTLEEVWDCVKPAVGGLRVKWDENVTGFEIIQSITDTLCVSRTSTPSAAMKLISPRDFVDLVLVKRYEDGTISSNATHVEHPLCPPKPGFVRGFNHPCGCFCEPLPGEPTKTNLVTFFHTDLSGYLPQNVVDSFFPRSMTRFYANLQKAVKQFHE
Assay: Differential scanning fluorimetry (DSF), STARD5
Assay type: binding
Conditions: single dose, Dose = 10 µM
ASSAY ENDPOINT: ΔTm at 10 µM (°C)
Give the number; °C is assumed, so skip it.

Requested field: ΔTm at 10 µM. Item: Cc1cc(C)c2c(c1)N=C1[C@@]2(O)CC[C@@H]2C[C@H](O)CC[C@]12C [Compound 14c] 0.0425

Give the measured ΔTm at 10 µM of C[C@]12CC[C@@H](O)C[C@H]1CCc1c2[nH]c2c(F)cc(Cl)cc12 [Compound 10i] . 0.421

Entry under review: "Cc1ccc2c(c1)C(=O)[C@]1(CC[C@@H]3C[C@H](O)CC[C@@]31C)N2" . Reported ΔTm at 10 µM? 0.143

Recorded ΔTm at 10 µM of C[C@]12CC[C@@H]3C[C@H]1CC[C@@]21C(=Nc2ccc(F)cc21)O3 [Compound 15d] , please. 0.6

Find the recorded ΔTm at 10 µM belonging to Cc1ccc2c(c1)[C@]1(O)CC[C@@H]3C[C@H](O)CC[C@]3(C)C1=N2 [Compound 14a] and report it. 0.5

Using the record for CC12CCC3CC1CCC21C(=Nc2ccc(Cl)cc21)O3 (centres unmarked) [Compound 15c] , report its ΔTm at 10 µM. 0.56

Bench note: what ΔTm at 10 µM did "C[C@]12CC[C@@H](O)C[C@H]1CCc1sc(N)nc12" show? 0.0867

Find the recorded ΔTm at 10 µM belonging to Cc1cc(C)c2c3c([nH]c2c1)[C@@]1(C)CC[C@@H](O)C[C@H]1CC3 [Compound 10j] and report it. -0.163

====

Task for the reader: assign each of the following compounds its reported inhibition at 10 µM.
molecular target: Aster-A (Homo sapiens); construct: Aster-A(359-547); GST (PreScission-cleavable) (N, cleaved yes); made in house; host or cells: E. coli OverExpress C41; experiment: Fluorescence polarisation (FP) competition with NBD-cholesterol, Aster-A; type: binding; conditions: single dose, Dose = 10 µM
Sequence (Q96CP6 359-547): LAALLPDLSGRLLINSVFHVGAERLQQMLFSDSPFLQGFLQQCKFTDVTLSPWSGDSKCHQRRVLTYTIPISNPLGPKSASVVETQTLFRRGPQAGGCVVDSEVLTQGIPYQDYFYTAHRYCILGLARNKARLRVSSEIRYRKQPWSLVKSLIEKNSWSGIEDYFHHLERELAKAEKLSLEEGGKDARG
Note: a bare number is incomplete; add the unit.

Using the record for C[C@]12CC[C@@H]3C[C@H]1CC[C@@]21C(=Nc2c(F)cc(Cl)cc21)O3 [Compound 15i] , report its inhibition at 10 µM. 46%

Data request, read-out inhibition at 10 µM, for Cc1cc(C)c2c(c1)NC(=O)[C@@]1(C)CC[C@@H](O)C[C@H]1CCC2=O [Compound 11g] 0%

Entry C[C@]12CC[C@@H](O)C[C@H]1CCC(=O)c1cc(Br)ccc1NC2=O [Compound 11b] has what inhibition at 10 µM? 1%

Suppose we examine the compound Cc1ccc2[nH]c3c(c(=O)c2c1)C[C@@H]1C[C@H](O)CC[C@]31C [Compound 12] ; what inhibition at 10 µM value has been reported? -1%

Using the record for C[C@]12CC[C@@H](O)C[C@H]1CCC[C@]21NC(=O)c2ccccc2N1 [Compound 5a] , report its inhibition at 10 µM. 0%

Consider the compound Cc1cc(C)c2c(c1)N=C1[C@@]2(O)CC[C@@H]2C[C@H](O)CC[C@]12C [Compound 14c] and give its measured inhibition at 10 µM. 2%

I'd like to know its inhibition at 10 µM. The compound in question is CCCCN(C)c1ccc2c(c1)[C@@]13CC[C@@H]4C[C@@H](CC[C@@]41C)OC3=N2 [Compound 19d] 60%

Would you mind telling me what inhibition at 10 µM value was observed for C[C@]12CC[C@@H]3C[C@H]1CC[C@@]21C(=Nc2ccccc21)O3 [Compound 15a] ? 43%

Form field: reported inhibition at 10 µM of Cc1ccc2[nH]c3c(c2c1)CC[C@@H]1C[C@H](O)CC[C@]31C [Compound 10e] -4%

Form field: reported inhibition at 10 µM of C[C@@]12CC[C@H]3C[C@@H]1CC[C@]21C(=Nc2ccc(Br)cc21)O3 [(−)-15b] 80%

Need inhibition at 10 µM of C[C@]12CC[C@@H](O)C[C@H]1CCc1sc(N)nc12 [Compound 8a] , thanks. -1%

Could you share which inhibition at 10 µM value was measured for C[C@]12CC[C@@H](O)C[C@H]1CCc1c2nc2ccccc2c1-c1ccc(F)cc1 [Compound 2d] ? -6%

Field request: inhibition at 10 µM | item: CCCCCNc1ccc2c(c1)[C@@]13CC[C@@H]4C[C@@H](CC[C@@]41C)OC3=N2 [Compound 19c] 59%

I have this compound here, Cc1ccc2c(c1)[C@@]13CC[C@@H]4C[C@@H](CC[C@@]41C)OC3=N2 [Compound 15e] , and I need its recorded inhibition at 10 µM. 45%

Would you mind telling me what inhibition at 10 µM value was observed for C[C@]12CC[C@@H](O)C[C@H]1CCc1c2[nH]c2ncccc12 [Compound 3] ? -2%

Fill blank: measured inhibition at 10 µM of the compound CC12CCC3CC1CCC21C(=Nc2ccc(Br)cc21)O3 (single isomer, unassigned; (+)) [(+)-15b] is ____. 2%

Consider the compound shown here: C[C@]12CC[C@@H](O)C[C@H]1CCc1[nH]c(-c3ccccc3)nc12 [Compound 9] What is its recorded inhibition at 10 µM? -2%
